Would you mind telling me the reported phytotoxicity rating IPOHE of each entry?
Test system: ivyleaf morningglory (Ipomoea hederacea, IPOHE)
Assay: Pre-emerge test, greenhouse herbicide activity screening
Assay type: in vivo
Conditions: pre-emerge, 63 g ai/ha, 14 days after application, scale 0-100
In your answer, state the number alone without any accompanying words.

Request the reported phytotoxicity rating IPOHE associated with COc1c(Cl)cc(F)c(-n2c(=O)cc(C(F)(F)F)n(C)c2=O)c1NC(=O)C(C#N)=Cc1ccccc1
0

I'd like to know its phytotoxicity rating IPOHE. The compound in question is COc1c(Cl)cc(F)c(-n2c(=O)cc(C(F)(F)F)n(C)c2=O)c1NC(=O)c1ccc2cccc(F)c2c1
20

Query: phytotoxicity rating IPOHE; subject: COc1c(Cl)cc(F)c(-n2c(=O)cc(C(F)(F)F)n(C)c2=O)c1NC(=O)C=Cc1cccc(Cl)c1
20

Fill in the blank: the reported phytotoxicity rating IPOHE of COc1c(Cl)cc(F)c(-n2c(=O)cc(C(F)(F)F)n(C)c2=O)c1NC(=O)Cc1ccccc1 is ____.
0

Using the record for COc1c(C#N)cc(F)c(-n2c(=O)cc(C(F)(F)F)n(C)c2=O)c1NC(=O)c1ccc2ccccc2c1 , report its phytotoxicity rating IPOHE.
30

// returns reported phytotoxicity rating IPOHE for input COc1c(Cl)cc(F)c(-n2c(=O)cc(C(F)(F)F)n(C)c2=O)c1NC(=O)COc1ccc(Cl)cc1
20

phytotoxicity rating IPOHE lookup needed for CCOC(=O)CSCC(=O)Nc1c(OC)c(Cl)cc(F)c1-n1c(=O)cc(C(F)(F)F)n(C)c1=O , thanks.
40

Give its phytotoxicity rating IPOHE value. Item: COc1c(Cl)cc(F)c(-n2c(=O)cc(C(F)(F)F)n(C)c2=O)c1NC(=O)C=Cc1ccccc1[N+](=O)[O-]
10

Data request, read-out phytotoxicity rating IPOHE, for COc1c(Cl)cc(F)c(-n2c(=O)cc(C(F)(F)F)n(N)c2=O)c1NC(=O)COCc1ccccc1
75

GET /values?readout=phytotoxicity rating IPOHE&item= C=Cc1ccc(C(=O)Nc2c(OC)c(Br)cc(F)c2-n2c(=O)cc(C(F)(F)F)n(C)c2=O)cc1
0

What does the record list as phytotoxicity rating IPOHE for COc1c(Br)cc(F)c(-n2c(=O)cc(C(F)(F)F)n(C)c2=O)c1NC(=O)C=Cc1ccccc1 ?
40

Reported phytotoxicity rating IPOHE, compound C=Cc1ccc(C(=O)N(C(=O)c2ccc(C=C)cc2)c2c(OC)c(Br)cc(F)c2-n2c(=O)cc(C(F)(F)F)n(C)c2=O)cc1 : ____
0

# query: phytotoxicity rating IPOHE of entry COc1c(Br)cc(F)c(-n2c(=O)cc(C(F)(F)F)n(C)c2=O)c1N(C(=O)C=Cc1ccccc1)C(=O)C=Cc1ccccc1
0

GET /values?readout=phytotoxicity rating IPOHE&item= COc1c(Cl)cc(F)c(-n2c(=O)cc(C(F)(F)F)n(C)c2=O)c1NC(=O)c1ccc2c(C#N)cccc2c1
40

Name the reported phytotoxicity rating IPOHE value associated with the compound COc1c(Cl)cc(F)c(-n2c(=O)cc(C(F)(F)F)n(C)c2=O)c1NC(=O)COc1ccc(Cl)cc1Cl
80

I'd like to know its phytotoxicity rating IPOHE. The compound in question is COc1c(Cl)cc(F)c(-n2c(=O)cc(C(F)(F)F)n(C)c2=O)c1NC(=O)c1ccc2c(Br)cccc2c1
0

What phytotoxicity rating IPOHE value was documented for this compound, COc1c(Cl)cc(F)c(-n2c(=O)cc(C(F)(F)F)n(C)c2=O)c1NC(=O)CCc1ccccc1C ?
50

Any idea what phytotoxicity rating IPOHE was measured for COc1c(Cl)cc(F)c(-n2c(=O)cc(C(F)(F)F)n(N)c2=O)c1NC(=O)C=Cc1ccccc1 ?
60
